- Test system: EKVX NSCLC
- protocol-summary: NCI-60 one-dose screen, 48 h (100 = growth as untreated, 0 = no growth, -100 = all killed)
- details: 10 µM unless noted
Compounds without any hit were thinned out: in the full panel of roughly 83,000, 20% have a hit.
readout-label: growth (%)
Write the number in % without appending the unit.

Known growth results, listed for orientation:
CC(C)CN(C(=O)c1ccc(Cl)cc1)c1c(N)n(CC(C)C)c(=O)[nH]c1=O ... 106
Cc1c([N+](=O)[O-])cc(C(C)(C)C)cc1[N+](=O)[O-] ... 98.6
O=[N+]([O-])c1cccc(-c2nc(-c3ccc(Cl)cc3Cl)cn2-c2ccccc2)c1 ... -8.4
NC(=S)N/N=C(/c1ccccc1)c1ccccc1N ... 66.1
COc1ccccc1OCC(=O)N1CCCCCC1 ... 89.6
COc1cc2nc(-c3ccc(-c4nn[nH]n4)cc3)[nH]c(=O)c2cc1OC ... 108

For the molecule shown here, C=C(C)[C@@H]1CC[C@]2(C(=O)NCC(=O)OC)CC[C@]3(C)[C@H](CC[C@@H]4[C@@]5(C)Cc6c([nH]c7ccccc67)C(C)(C)[C@@H]5CC[C@]43C)[C@@H]12 , give the reported growth. 71.5

Record: CCN(CC)CCCC(C)Nc1cc(-c2cccc(OC(F)(F)F)c2)nc2ccc(N3CCCC3)cc12 (centres undefined) 49.9

Same lookup for CC(=O)c1c[nH]c2ccc(-c3ccnc(Nc4ccc(NC(=O)c5cccc(F)c5)c(CN5CCOCC5)c4)n3)cc12 , please. -24.1

###

- Test system: EKVX NSCLC
- protocol-summary: NCI-60 one-dose screen, 48 h (100 = growth as untreated, 0 = no growth, -100 = all killed)
- details: 10 µM unless noted
The panel holds about 83,000 compounds, 20% with a hit somewhere; the sample as a whole holds those more often.
readout-label: growth (%)
The response must be a number in % with no trailing unit.

Guide cases for growth, answers given:
Cc1n[nH]c(C)c1-c1c(C)n[nH]c1C ... 18.2
O=CNc1cc(Cl)cc(Cl)c1 ... 96.7
CC(C)(C)CC(C)(C)Nc1c(-c2ccc(C(F)(F)F)cc2)nc2cnccn12 ... 79.4
COc1cc2c(cc1[N+](=O)[O-])-c1ccc([N+](=O)[O-])cc1/C2=N\O ... 76.7
CCNNC(=O)[C@@H]1[C@H](c2cc(OC)c(OC)c(OC)c2)c2cc3c(cc2[C@H](O)[C@H]1CO)OCO3 ... 44.8

Consider the compound Fc1ccc(-n2cc(COc3ncnc4sc5c(c34)CCCC5)nn2)cc1Cl and give its measured growth. 94.1

Next: COc1ccc(C(=O)c2cc3c(N)c(C(=O)Nc4cccc(Br)c4C)sc3nc2C)cc1 38.3

Query COc1ccc2c(c1)OC13Oc4cc(OC)ccc4C=C1CCCC3=C2 next 39.7

Please do the same for CC[N+](CC)(CCCC(C)[N+]1(Cc2ccccc2)C(C)=CC=C1C)Cc1ccccc1 (stereo unspecified) as well. 78.1

// query: Cc1c2c(cc[n+]1Cc1ccccc1)c1ccc(OCC3CCCCC3)cc1n2CC1CCCCC1 -75.5

Do the same for COc1cc2nc(-c3ccc(C#N)cc3)[nH]c(=O)c2cc1OC please 98.7

###

Quick reference for growth among some molecules
- System: NCI/ADR-RES ovarian
- protocol-summary: NCI-60 one-dose screen, 48 h (100 = growth as untreated, 0 = no growth, -100 = all killed)
- details: 10 µM unless noted
The panel holds about 83,000 compounds, 20% with a hit somewhere; the sample as a whole holds those more often.
Kindly answer with a numeric value in %, unit omitted.

O=C(N=Nc1c(O)[nH]c2ccc(F)cc12)c1cc2ccccc2[nH]1 ... 100

What value of growth has been recorded for this entry: COc1ccc(C2CC(c3cccc(Nc4ccncc4)c3)=NN2c2ccc(Cl)cc2)cc1 (centres undefined) 62.3

How about COc1ccc(C(O)c2cc3c(N)c(C(=O)Nc4ccc(Br)cc4)sc3nc2C)cc1 (centres undefined) ? 18.5

Would you mind doing COc1ccc(C(O)c2cc3c(N)c(C(=O)Nc4ccc(Cl)cc4)sc3nc2C)cc1 (centres undefined) as well? 16

###

- Tested on: SR leukemia
- protocol-summary: NCI-60 one-dose screen, 48 h (100 = growth as untreated, 0 = no growth, -100 = all killed)
- details: 10 µM unless noted
Compounds without any hit were thinned out: in the full panel of roughly 83,000, 20% have a hit. The source made the active and inactive calls. Rule for the calls: active = growth percent below 10; inactive = the rest.
readout-label: growth

O=C1c2ccccc2C(=O)c2c(NCCN=Cc3ccccc3O)cccc21 ... -33.2% (active)

Recorded growth for COc1cccc(-c2nc3occn3c2-c2ccnc(NCCCNS(=O)(=O)c3cccc(F)c3)n2)c1 , please? 107% (inactive)

Same read-out for CCOC(=O)c1cnc2c(cnn2CC)c1NN=C(C)C ? 65.9% (inactive)

Then what about the compound COc1ccc(-c2nc(N=Nc3c(O)[nH]c4ccccc34)nc(N3CCOCC3)c2C#N)cc1 ? 41.7% (inactive)

Please do the same for COc1cc(OC)cc(C2C3=C(COC3=O)Nc3cc(OC)ccc32)c1 (stereo not drawn) as well. 8.35% (active)

Follow-up item: Cc1[nH]n(C(=O)c2ccncc2)c(=O)c1N=Nc1ccc(F)c(Cl)c1 76.1% (inactive)

Same lookup for Cc1c2c(cc[n+]1Cc1ccc(F)cc1)c1ccc(OCc3cccc(F)c3)cc1n2Cc1cccc(F)c1 , please. -48.7% (active)

Query Fc1ccccc1CSc1ncnc2nc[nH]c12 next 105% (inactive)

Then Clc1ccc(N2N=C(c3cccc(Nc4ccncc4)c3)CC2c2ccc3c(c2)OCO3)cc1 (stereo not drawn) ? 6.11% (active)

Follow-up item: COc1cccc(CNCCN2C(=O)c3ccc4c5c(ccc(c35)C2=O)C(=O)N(CCNCc2cccc(OC)c2)C4=O)c1 -27.8% (active)

###

growth: recorded values
- Test system: MDA-MB-435 melanoma
- protocol-summary: NCI-60 one-dose screen, 48 h (100 = growth as untreated, 0 = no growth, -100 = all killed)
- details: 10 µM unless noted
The panel holds about 83,000 compounds, 20% with a hit somewhere; the sample as a whole holds those more often.
Kindly answer with a numeric value in %, unit omitted.

Any idea what its growth is? The compound is C=CCn1c(SCC(=O)Nc2ccc(C(=O)/C=C/c3cc(OC)c(OC)c(OC)c3)cc2)nnc1-c1cc(OC)c(OC)c(OC)c1 3.79

Cool, now COc1cc(OC)cc(C2C3=C(COC3=O)Nc3cc(OC)ccc32)c1 (stereo not given) -30

###

- Test system: SF-295 CNS
- protocol-summary: NCI-60 one-dose screen, 48 h
- details: 10 µM unless noted
This is part of a sample that, as a whole, favours compounds with a hit. Of some 83,000 tested, about 20% had one in any assay. Activity calls are given as the source filed them. Rule for the calls: active = growth percent below 10; inactive = the rest.
Return exactly one item of active, inactive

CC1=NNC(=O)C1CCC(=O)N/N=C(\C)c1ccc2ccccc2c1 (stereo not given) ... inactive
O=C1NC(=O)C(=Cc2cn(Cc3ccccn3)c3ccccc23)C(=O)N1 ... inactive
CN1C(=O)N(C)[C@H]2NC(NN)=N[C@H]21 ... inactive
COc1cc(C2CC(c3cccc(Nc4ccncc4)c3)=NN2c2cc(Cl)cc(Cl)c2)cc(OC)c1OC (stereo not given) ... active
COc1cc2nc(Cc3ccc(C)cc3)[nH]c(=O)c2cc1OC ... inactive

Given NC(=O)c1ccc[n+](CC(=O)N2CCN(c3cc4c(cc3F)c(=O)c(C(=O)O)cn4C3CC3)CC2)c1 , state the outcome it received in this test. inactive

Subsequent entry: O=C(Nc1nc2ccc(S(=O)(=O)Nc3ccc(C4(C(F)(F)F)CC4)cc3)cc2[nH]1)c1cnccn1 inactive

Same again, this time with CCCC/C(=N\N=C(N)N)c1ccc(F)cc1 inactive

Do the same for CCCCCCNC(=O)Oc1ccc(/C(=C(/CC)Cc2ccccc2)c2ccc(OCCN(CC)CC)cc2)cc1 please inactive

Next: FC(F)(F)c1cccc(Oc2ccc(Nc3ncnc4ccc(OCCCN5CCOCC5)cc34)cc2Cl)c1 inactive

###

- System: UACC-62 melanoma
- protocol-summary: NCI-60 one-dose screen, 48 h (100 = growth as untreated, 0 = no growth, -100 = all killed)
- details: 10 µM unless noted
The panel holds about 83,000 compounds, 20% with a hit somewhere; the sample as a whole holds those more often.
In plain terms, low growth, meaning strictly below 90%, gives criterion met, and everything else gives criterion not met.

Some solved cases for reference:
COc1ccc(C(=O)/C=C/c2c(OC)cc(OC)cc2OC)c(OC)c1 ... criterion met
Cn1/c(=N/NC(N)=S)ccc2ccccc21 ... criterion not met
CC(=O)[C@@H]1CC[C@]2(C(N)=O)CC[C@]3(C)[C@H](CC[C@@H]4[C@@]5(C)CCC(=O)C(C)(C)[C@@H]5CC[C@]43C)[C@@H]12 ... criterion met
CC(=O)N1c2ccccc2NC2=C(C(=O)N(C)C2(C)C)C1C (stereo unspecified) ... criterion met
COc1ccc(/C=C/C(=O)c2ccc(Nc3ncnc4ccccc34)cc2)cc1OC ... criterion met

Just wondering, is growth of CCSc1ccc2c(c1)N(CCCN1CCN(C)CC1)c1ccccc1S2 below 90%? criterion met

Now this one: CCOC(=O)c1c(C)nc2c(c1N)C(=O)C(=O)N2Cc1ccc(C(F)(F)F)cc1 criterion met

Again, but for COc1ccc(C(=O)c2cc3c(N)c(C(=O)Nc4ccc(Br)cc4)sc3nc2C)cc1 criterion met

Would you mind doing CCCc1cc2c(cc1Br)OCO2 as well? criterion not met
